target: Tyrosinase (Agaricus bisporus); conditions: at 25 µM
Description: Inhibition of mushroom tyrosinase at 25 uM using L-tyrosine as substrate incubated for 30 mins by spectrophotometric method relative to control
Activity calls are given as the source filed them. No cut-off for these calls is given here.
Property Name: inhibition

Ask | So what does the record say about inhibition for O=C(/C=C/c1ccc(O)c(O)c1)Nc1ccccc1 ?
Reply | inactive

Ask | So what does the record say about inhibition for O=C1CC(c2ccc(O)c(O)c2)c2ccccc2N1 (centres undefined) ?
Reply | inactive

Ask | So what does the record say about inhibition for O=C(/C=C/c1ccc(O)cc1)NCc1ccccc1 ?
Reply | inactive

Ask | So what does the record say about inhibition for COc1cc(/C=C/C(=O)Nc2ccccc2)ccc1O ?
Reply | 59%

---

target: Tyrosinase (Agaricus bisporus); settings: at 25 µM
Activity calls are given as the source filed them. The calls are words filed in the database; no cut-off is given here.
Property Name: inhibition

Field: example entries. Status: answers known.
Ask | Could you share what inhibition was measured for O=C1CC(c2ccc(O)cc2)c2ccccc2N1 (stereo not drawn) , tested on Tyrosinase (Agaricus bisporus)?
Reply | inactive

Ask | Could you share what inhibition was measured for COc1cc(/C=C/C(=O)NCc2ccccc2)ccc1O , tested on Tyrosinase (Agaricus bisporus)?
Reply | 82.9%

Ask | Could you share what inhibition was measured for COc1cc(C2CC(=O)Nc3ccccc32)ccc1O (stereo not drawn) , tested on Tyrosinase (Agaricus bisporus)?
Reply | inactive

Ask | Could you share what inhibition was measured for CCN(CC)C(=O)/C=C/c1ccc(O)c(OC)c1 , tested on Tyrosinase (Agaricus bisporus)?
Reply | 61.9%

Ask | Could you share what inhibition was measured for CCN(CC)C(=O)/C=C/c1ccc(OC)c(O)c1 , tested on Tyrosinase (Agaricus bisporus)?
Reply | 20.7%

New cases:
Ask | Could you share what inhibition was measured for CCN(CC)C(=O)/C=C/c1ccc(O)cc1O , tested on Tyrosinase (Agaricus bisporus)?
Reply | 96.2%

Ask | Could you share what inhibition was measured for COc1ccc(C2CC(=O)Nc3ccccc32)cc1O (stereo not drawn) , tested on Tyrosinase (Agaricus bisporus)?
Reply | 25.9%

Ask | Could you share what inhibition was measured for CCN(CC)C(=O)/C=C/c1ccc(O)cc1 , tested on Tyrosinase (Agaricus bisporus)?
Reply | inactive

Ask | Could you share what inhibition was measured for CCN(CC)C(=O)/C=C/c1ccc(O)c(O)c1 , tested on Tyrosinase (Agaricus bisporus)?
Reply | inactive

Ask | Could you share what inhibition was measured for O=C(/C=C/c1ccc(O)cc1O)NCc1ccccc1 , tested on Tyrosinase (Agaricus bisporus)?
Reply | 85.4%

Ask | Could you share what inhibition was measured for O=C(/C=C/c1ccc(O)c(O)c1)NCc1ccccc1 , tested on Tyrosinase (Agaricus bisporus)?
Reply | 10%

Ask | Could you share what inhibition was measured for COc1ccc(/C=C/C(=O)NCc2ccccc2)cc1O , tested on Tyrosinase (Agaricus bisporus)?
Reply | 31.5%

Ask | Could you share what inhibition was measured for COc1ccc(/C=C/C(=O)Nc2ccccc2)cc1O , tested on Tyrosinase (Agaricus bisporus)?
Reply | 29.7%
